Origin of measurements: ChEMBL document CHEMBL1147655

Target: Protein kinase C epsilon type (Homo sapiens, UniProt Q02156)
Sequence (Q02156 whole entry): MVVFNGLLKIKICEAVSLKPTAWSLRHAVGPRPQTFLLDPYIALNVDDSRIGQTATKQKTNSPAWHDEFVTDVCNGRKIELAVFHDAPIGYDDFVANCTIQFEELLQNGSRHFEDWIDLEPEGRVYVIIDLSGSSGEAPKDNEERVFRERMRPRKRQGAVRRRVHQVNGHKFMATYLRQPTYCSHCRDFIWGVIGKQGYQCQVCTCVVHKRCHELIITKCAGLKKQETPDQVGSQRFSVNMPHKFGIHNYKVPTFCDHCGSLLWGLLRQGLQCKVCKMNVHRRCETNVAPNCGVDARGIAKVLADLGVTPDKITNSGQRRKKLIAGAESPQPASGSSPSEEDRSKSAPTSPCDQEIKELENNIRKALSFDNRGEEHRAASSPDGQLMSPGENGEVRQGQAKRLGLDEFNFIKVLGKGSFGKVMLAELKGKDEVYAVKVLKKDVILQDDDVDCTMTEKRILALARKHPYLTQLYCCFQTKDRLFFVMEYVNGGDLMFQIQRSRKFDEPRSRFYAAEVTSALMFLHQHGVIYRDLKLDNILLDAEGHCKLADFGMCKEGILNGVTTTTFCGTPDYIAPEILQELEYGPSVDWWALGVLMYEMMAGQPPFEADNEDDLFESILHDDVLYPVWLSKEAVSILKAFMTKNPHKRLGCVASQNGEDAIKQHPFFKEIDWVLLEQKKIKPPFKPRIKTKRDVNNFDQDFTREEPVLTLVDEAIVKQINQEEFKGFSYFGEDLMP
Assay: Displacement of [3H]phorbol 12,13-dibutyrate from PKC epsilon-C1B
pKi: −log10 of the molar value.
observed_property: pKi

{"columns": ["smiles_input", "observed_property", "numeric_result"],
 "data": [
  ["CCCCCCCCc1cccc2c1CC[C@@H](CO)NC(=O)[C@H](C(C)C)N2C", "pKi", 6.29]
]}
